experiment-description: qHTS for Inhibitors of human tyrosyl-DNA phosphodiesterase 1 (TDP1): qHTS in cells in absence of CPT; further: nearly all actives have a fitted effect of over 55% in size; further: potency means the concentration at half of the fitted maximal effect
condition-parameters: DT40 Tdp1-/- hTDP1 cells, no CPT, ATP luminescence, 48 h
About 64,000 (15%) of roughly 420,000 compounds were called active. Another 27% or so got no clear call; they are omitted. The list is a sample of the results.
quantity-kind: Potency

CCOC(=O)N1CCN(CCC(=O)Nc2ccccc2)CC1 ... inactive
CC(C)(c1ccccc1)c1ccc(OCCN)cc1 ... 11.6 µM (active)
COc1ccc(C2=NN(C(=O)c3ccccc3C(=O)O)C(c3ccccc3O)C2)cc1 (stereo unspecified) ... inactive
CCC(=O)Nc1c(C)n[nH]c1C ... inactive
O=C(NCCc1ccccc1)c1ccc(OCCOc2ccccc2)cc1 ... inactive
COc1cc(OC)cc(/C(N)=N/O)c1 ... inactive
COc1ccc(C2CC(c3ccc([N+](=O)[O-])cc3)=NN2C(C)=O)cc1 (stereo unspecified) ... 14.6 µM (active)
COc1ccc(C2=NN(C(C)=O)C(c3ccccc3)C2)cc1 (stereo unspecified) ... inactive

Data request, read-out Potency, for COCC1CCN(C(=O)C2CCC(=O)N(Cc3cccc(C(F)(F)F)c3)C2)CC1 (stereo unspecified)
inactive

Moving on to the next compound: CCOC(=O)c1c(Cc2ccc(Cl)cc2)c[nH]c1C
inactive

Moving on to the next compound: O=C(Nc1cc(-c2nn(CC(=O)N3CCCCC3)c(=O)c3ccccc23)ccc1N1CCOCC1)c1ccc(Cl)cc1
inactive

* * *

experiment-description: qHTS for Inhibitors of human tyrosyl-DNA phosphodiesterase 1 (TDP1): qHTS in cells in absence of CPT; further: nearly all actives have a fitted effect of over 55% in size
condition-parameters: DT40 Tdp1-/- hTDP1 cells, no CPT, ATP luminescence, 48 h
Screen size: about 420,000 compounds; about 64,000 (15%) were called active. About 27% were inconclusive and are not listed. Calls come from the whole dose curve; as a rule, active = well fitted inhibition curve with a large enough effect; inconclusive = small, poorly fitted or top-dose-only effect; inactive = flat fitted curve, though single readings scatter. Only a sample is shown.
# output must be one of 1 for active, -1 for inactive

CCN(Cc1cc2cc(C)ccc2[nH]c1=O)S(=O)(=O)c1ccccc1 ... -1
CCCc1c(C)nc2c(Br)cccc2c1Cl ... -1
COC(=O)c1cc(NC(=O)c2cccnc2)ccc1N1CCOCC1 ... -1
CCOCCCn1c(SCC(=O)Nc2ccc(CC)cc2)nc2ccccc2c1=O ... 1
CC(C)COC(=O)c1ccc(NC(=O)C2C3C=CC(C3)C2C(=O)O)cc1 (stereo unspecified) ... -1

Tell me the recorded outcome of this test for COc1ccc2[nH]c(=O)c(CN(Cc3cccnc3)S(=O)(=O)c3ccccc3F)cc2c1 .
1

* * *

experiment-description: qHTS for Inhibitors of human tyrosyl-DNA phosphodiesterase 1 (TDP1): qHTS in cells in absence of CPT; further: nearly all actives have a fitted effect of over 55% in size
condition-parameters: DT40 Tdp1-/- hTDP1 cells, no CPT, ATP luminescence, 48 h
About 64,000 (15%) of roughly 420,000 compounds were called active. Inconclusive results (about 27%) are left out. Calls come from the whole dose curve; as a rule, active = well fitted inhibition curve with a large enough effect; inconclusive = small, poorly fitted or top-dose-only effect; inactive = flat fitted curve, though single readings scatter. Not all results are given here.
# output must be one of active, inactive

Use these answered entries as a reference point.
N/C(=N\OC(=O)Nc1ccccc1)c1ccno1 ... inactive
COc1ccc(C(=O)OCC(=O)NCC2CCCCC2)cc1S(=O)(=O)N1CCCc2ccccc21 ... inactive
CC1(c2ccccc2Cl)NC(=O)N(CC(=O)NC(=O)NCc2ccco2)C1=O (stereo unspecified) ... inactive

Tell me the recorded outcome of this test for COc1ccc(CNS(=O)(=O)c2ccc(NC(=O)N3CCCCC3)cc2)cc1 .
active

Moving on to the next molecule: CSc1ncnc2c1ncn2CCCNCC(C)c1ccccc1 (stereo unspecified)
inactive

Moving on to the next molecule: COCCNC(=S)N(CCc1c(C)[nH]c2ccc(C)cc12)Cc1cccnc1
inactive

Data origin: PubChem BioAssay AID686978
